The reader will find reported protein stability index values listed item by item below.
- procedure_summary: protein stability index of a GFP-peptide fusion (GPS, HEK-293T) (PSI 1-6); higher = more stable;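 further: 24-mer peptide tiles fused after GFP, lentivirally expressed, FACS-sorted into six equal bins by GFP/DsRed ratio, decoded by Illumina sequencing, PSI is the read-weighted mean bin number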
- run_parameters: treatment: MLN4924 1 uM, 8 h; c terminus: a fixed tail appended
// return just the number, without any unit appended

ordered_residues="QYEKYSFRGFPPEDLMPLAAAYGH [P3H4]" data_value=2.55
ordered_residues="LFVLFMFFGMAFNFIVNDSRKKPI [SOAT1]" data_value=2.99
ordered_residues="IENRDVAKSVLKERGLKKIRLGIE [BTBD10]" data_value=3.32
ordered_residues="YRGAVYADSGNFKRCINLWKYALD [FEM1C]" data_value=2.33
ordered_residues="DTMLEEVENKEKDSNMPHFQTLQA [CEP70]" data_value=4.93
ordered_residues="FVALKSVRVPNGGGGGGGLPISTV [CDK4]" data_value=2.41

Would you kindly look at the next entry?
Field protein stability index (entry ERICSEEERAKAKHLARQLEEKDR [CHCHD3] ) reads 5.17

----------
- procedure_summary: protein stability index of a GFP-peptide fusion (GPS, HEK-293T) (PSI 1-6); higher = more stable
- run_parameters: treatment: MLN4924 1 uM, 8 h; c terminus: a fixed tail appended
Listed here are sequences together with their documented protein stability index.
// keep it numeric: no unit symbol after the value

Per the record, QVTMRGLLSCLSKSNNRLKSLSIQ [FBXO39] has protein stability index of 2.07

The reported protein stability index of the sequence RAKDFLPADIQAQFAISRELIRNI [SNX8] was 2.48

Memo: SFLKQKEQLEAEAQALRQELERQR [PBXIP1] , reported protein stability index: 4.52

Given item NECEITKRRRKSCQACRFMKCLKV [ESRRG] , the value recorded as its protein stability index is 2.95

The recorded protein stability index for entry RTMCAVLGLVARQEDSGLRDHSVR [AUP1] equals 2.76

The recorded protein stability index for entry EISRGEYLYTYDSQITDSEHNSSL [ZNF8] equals 4.25

Noted for MEIATYRKLLESEECRMSGEFPSP [KRT71] : its protein stability index reads 4.07

Just so you know, measured protein stability index for PGSASLAQSRLEDPGADSEKSTVV [DLX1] came out at 5.36

get_value(item= PNIQEAVEGAMHIQECVPEDLELK [CRYL1] , readout=protein stability index) returns 5.57

The reported protein stability index of the sequence TEKDLLEDGFGEHPFYHCLVAEVP [SAT1] was 3.41

Sample ELARIVLLRHRMNWLGRPSKVLSL [RAB40A] ; protein stability index observed: 2.43

In plain terms, QPPAITQVHRQGERRRELVRSQTL [SMTNL2] has a documented protein stability index of 4.57

// recorded protein stability index for REITGVQAQPGEATSGPPGIQPGQ [PALM] : 5.23

Per the records, this sequence ( NLAAMTPHDFIEHFLSKMPEAEEN [CCND1] ) has protein stability index equal to 4.49

----------
- procedure_summary: protein stability index of a GFP-peptide fusion (GPS, HEK-293T) (PSI 1-6); higher = more stable
- run_parameters: treatment: DMSO; c terminus: a fixed tail appended
1 means recorded protein stability index is 4 or above; -1 means it is below 4.

Here are 5 sequences together with their reported answers.
ordered_residues="VRTLSEPPDKGEEQVNFCESSNDF [ZBTB22]" qualitative_label=1
ordered_residues="HMVKISGGPRISYPLLHEWALREG [MAGEA6]" qualitative_label=-1
ordered_residues="LKRAFEAANLPALVLKIMSGTFAP [NEK8]" qualitative_label=-1
ordered_residues="AACFDGRLDIVKYLVENNANISIA [FEM1B]" qualitative_label=-1
ordered_residues="AELKEAVEEPSSKDVMEKREDSKE [CHGA]" qualitative_label=1

Does the reported protein stability index for RSLILDDRGLRGFPKNRVLEGVID [TRIM9] fall at or above the 4 mark?
-1

For this sequence, is measured protein stability index 4 or higher? DAVFMKDGFFYFFHGTRQYKFDPK [MMP1]
-1

Is it the case that GVGAYGTVYKARDPHSGHFVALKS [CDK4] has protein stability index reaching or exceeding 4?
-1

Is protein stability index for GWFVRELRVEFAAENYLSGGGPGD [FBXO33] at or above 4?
-1

hey, is protein stability index for this one >= 4? RFQDPAAASISDGDCDAREEKQRE [FAM219A]
1

Hello, I need to know if ELFPTGKQLEPLVAPLADGKVAVG [VPS39] has measured protein stability index not below 4. Thanks!
-1

----------
// reported protein stability index per item
- procedure_summary: protein stability index of a GFP-peptide fusion (GPS, HEK-293T) (PSI 1-6); higher = more stable
- run_parameters: treatment: DMSO; c terminus: a fixed tail appended
Response field accepts a number only; no unit should be typed.

Worked examples, 4 sequences total:
ordered_residues="AAMLSMVKYNSCADRPFSAPWWFW [POMT2]" metric_name="protein stability index" data_value=2.31
ordered_residues="SRYLGDSGLDDFFLDIDTSAVEKE [SERTAD3]" metric_name="protein stability index" data_value=5.31
ordered_residues="HCGELKRRLGLSTLGELKQNLSRS [TPD52L2]" metric_name="protein stability index" data_value=3.04
ordered_residues="PPSVLISKNEVGIFTTPNFDETSS [KMT2E]" metric_name="protein stability index" data_value=4.09

So, IVADIELENVLDPDSFYELKSQPL [TFE3] ? Its protein stability index was 2.65

// sample EDESQSEEENDYRNLDASPTYKGL [CEP70] , its protein stability index was 5.27

Looking up MSNKDRHIDSSCSSFIKTEPSSPA [ESRRG] , I found its protein stability index recorded as 4.33

Data point: ARRRKKILFYCHFPDLLLTKRDSF [ALG2] ; protein stability index = 2.4

Field protein stability index (entry REKQLSHSLRAVSTDPPHHDHHDE [BEX1] ) reads 5.37

Recorded protein stability index (sequence SGGSYRDSYESYGNSRSAPPTRGP [RBMX] ): 4.3

----------
Parameter: protein stability index. Scope: all listed entries.
- procedure_summary: protein stability index of a GFP-peptide fusion (GPS, HEK-293T) (PSI 1-6); higher = more stable
- run_parameters: treatment: MLN4924 1 uM, 8 h; c terminus: native
Number only, no unit.

ordered_residues="EQAKENENGELQKIILPRSRVKG [ZC2HC1C]" metric_name="protein stability index" data_value=3.42

The reported value for PEPGRAGYPAPRDEGVLRPRAHA [HAGHL] in terms of protein stability index is 3.41

Recorded protein stability index (sequence SVSCCHGNTLLAVRSVTDEPVPP [NEK8] ): 3.48

protein stability index reading for GDRAGDASKDILLGPWDMVLAQG [SCARA5] : 2.69

protein stability index for LNVRGGKPDDITVLLSIVAEYTD [PPTC7] is 2.5

get_value(item= TACSLPLCACLLGQKMLRHCGRT [PXN] , readout=protein stability index) returns 2.28

The value of protein stability index measured for the sequence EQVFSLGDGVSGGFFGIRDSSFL [ZBED1] turned out to be 3.61

----------
sequences and their reported protein stability index
- procedure_summary: protein stability index of a GFP-peptide fusion (GPS, HEK-293T) (PSI 1-6); higher = more stable
- run_parameters: treatment: DMSO; c terminus: a fixed tail appended
Format: numeric value only, no unit, no commentary.

Guide cases for protein stability index, answers given:
ordered_residues="LFSSHPPLGGGVGGQDGLGAPKDQ [KLHL14]" data_value=4.89
ordered_residues="NHPDLAKDLTEYLKVRSHDPEEAI [PDS5B]" data_value=4.7
ordered_residues="AALEEESRQRQSRMEKGEPYMSIQ [SMARCE1]" data_value=4.88
ordered_residues="DYVQLENQWETPPEDLQTDLAKLV [ZNF449]" data_value=4.19
ordered_residues="SNKKRPSLDGRDPGNGTHGLSPEE [ELOA2]" data_value=5.36

The measured protein stability index associated with SSFQDLLGDALAGPPRAPGRSGWP [HES6] reads 3.13

// field: protein stability index; key: EASNFQMDRKTRFIIHGFIDKGDE [PNLIPRP1] ; value = 3.26

Lookup result for PHLPRVMLPGVLAGVSAEESWAGP [SCNN1D] ; measured protein stability index: 3.37

Measured protein stability index, DTDAEGDDFELLDQSELSQLDPAS [RETREG3] : 5.61

----------
In this section, each of the sequences is paired with its reported protein stability index.
- procedure_summary: protein stability index of a GFP-peptide fusion (GPS, HEK-293T) (PSI 1-6); higher = more stable
- run_parameters: treatment: DMSO; c terminus: a fixed tail appended
Could you keep your reply to the number by itself?

Please review the following examples before continuing.
ordered_residues="EMPYNIWCDGCKNHIGMGVRYNAE [YJU2B]" data_value=2.27
ordered_residues="QNLCKGLSQPTTNLVAGCLQLNAR [NEUROD6]" data_value=2.97

# sequence MSEWSECTAKCGERSVVTRDIRCS [ADAMTSL2] ; its protein stability index = 3.87

Memo: TVETCRALGKLLPRETLCTELVLS [LRRC45] , reported protein stability index: 2.67

TTSDIPHMLNQVESKVKDILSKVQ [FAM98B] yielded protein stability index of 2.48

Record TWWIMFLSTFSVPYFLFQHWATGY [SOAT1] . Reported protein stability index: 3.18

Briefly, protein stability index measured for CTLEQDHFKKQTIYRFLKLHPRGK [FEM1C] : 2.43
